system: wheat germ agglutinin (Triticum aestivum), Alexa647-labelled; assay: wheat germ agglutinin binders on compound microarrays, profiling panel, artefact control for SMM control-protein annotation, biochemical, small-molecule microarray, 635/667 nm fluorescence (AID 1140); details: WGA-A647 binding, 635 nm fluorescence, higher = more signal;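 further: score merges 667 nm feature emission with signal to noise over triplicate slides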
MEASURED QUANTITY: composite z-score
Keep the answer to the number alone.

Observe how each entry below is paired with its result.
1) CCOC(=O)C[C@H]1[C@H](OC(=O)c2ccc(C(=O)c3ccccc3)cc2)[C@@H](NC(=O)c2ccc3ccccc3c2)c2cc(OCCCO)ccc2N1C(=O)c1ccc2ccccc2n1	0.0601
2) C=CCOC(=O)[C@H]1[C@@H]2C(=O)O[C@@H](c3ccccc3)[C@@H](c3ccccc3)N2[C@@H](c2ccc(OCCOC(=O)[C@@H]3C[C@@H]4C(=O)N[C@@H](CC(C)C)C(=O)N4[C@@H]3c3ccc(O)cc3)cc2)[C@]12C(=O)Nc1ccc(I)cc12	0.902
3) COCCCNC(=O)[C@@]1(Sc2ccc(C)cc2)CC(=O)N(C2CCCCC2)[C@@H]1c1ccc(CO)cc1I	0.814
4) NC(=O)NCC#Cc1ccc2c(c1)[C@]1(C(=O)N2)[C@H](C(=O)Nc2nc3ccccc3s2)[C@H]2C(=O)O[C@H](c3ccccc3)[C@H](c3ccccc3)N2[C@@H]1c1ccc(OCCO)cc1	0.441

For "CN(C)CCCC[C@@H]1NC(=O)[C@H]2C[C@@H](C(=O)O)[C@@H](c3cccc(OCCO)c3)N2C1=O" , what is its reported composite z-score?
0.734

For "CC(C)(C)OC(=O)CC[C@]1(C(N)=O)N=C(c2ccc(OCCCO)cc2)O[C@H]1c1ccccc1CN=[N+]=[N-]" , what is its reported composite z-score?
0.668

---

test: small-molecule microarray binders of probe aEGFR, primary screen, biochemical, biotinylated probe, 635/667 nm fluorescence (AID 1097); details: higher = more signal;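 further: probe is a biotinylated anti-EGFR antibody binding compounds printed on slides; score combines fluorescence near 667 nm and signal to noise of each spot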
Mark class 0 for composite z-score values under -0.07, and class 1 for everything at or above.

# example entries with known answers
1) COc1ccc(CCNC(=O)[C@@]2(Sc3ccc(C)cc3)CC(=O)N(C(C)C)[C@@H]2c2ccc(CO)cc2)cc1	class 0
2) COC(=O)[C@@]1(Cc2ccc(OC)cc2)[C@@H]2[C@@H](CC(=O)[C@H]2CC(=O)C(=O)N2CCCC2)CN1C(=O)c1ccccc1	class 1
3) COC(=O)[C@@]1(Cc2ccccc2)[C@@H]2[C@@H](CC(=O)[C@H]2CC(=O)C(=O)N(C)C)CN1C(=O)c1ccccc1	class 1

Check if composite z-score >= -0.07 (inclusive). Item: "CN(C)C(=O)[C@]1(Cc2ccccc2)N=C(c2ccc(OCCCO)cc2)O[C@@H]1c1ccccc1"
class 1

Check if composite z-score >= -0.07 (inclusive). Item: "O=C1N(CCS(=O)(=O)c2ccccc2)c2ccccc2[C@@H]2OC(c3ccc(OCCCO)cc3)=N[C@]12CCS(=O)(=O)c1ccccc1"
class 1

Check if composite z-score >= -0.07 (inclusive). Item: "COc1cccc(OC)c1C(=O)O[C@H]1[C@@H]2OC(=O)[C@H](Cc3cccc(Br)c3)C/C=C/C[C@@H](Cc3cccc(Br)c3)C(=O)O[C@H]2[C@@H](OC)O[C@@H]1CO"
class 1

Check if composite z-score >= -0.07 (inclusive). Item: "COCCOC(=O)N1C(=O)[C@@]2(c3cc(C#CCNC(N)=O)ccc31)[C@H](C(=O)NC[C@H](O)c1ccccc1)[C@H]1C(=O)O[C@H](c3ccccc3)[C@H](c3ccccc3)N1[C@@H]2c1ccc(OCCO)cc1"
class 0

Check if composite z-score >= -0.07 (inclusive). Item: COc1ccc(NN2C(C(O)c3cc(C(F)(F)F)cc(C(F)(F)F)c3)C=CC3C(=O)N(C4CCCCC4)C(=O)C32)cc1 (centres undefined)
class 1

Check if composite z-score >= -0.07 (inclusive). Item: "Cc1ccc(S[C@]2(C(=O)NCCCN(C)C)CC(=O)N(Cc3ccccc3Cl)[C@@H]2c2ccc(CO)cc2I)cc1"
class 0

Check if composite z-score >= -0.07 (inclusive). Item: "COc1ccc([Si](C)(C)[C@H]2[C@H](CCn3cc([C@H](O)c4ccccc4)nn3)O[C@@]3(C(=O)N(C)c4c(Br)cc(C)cc43)[C@@H]2C)cc1"
class 0

Check if composite z-score >= -0.07 (inclusive). Item: "CC(C)CNC(=O)[C@@H]1c2ccccc2C(=O)N(C(C)C)[C@H]1c1ccc(CO)cc1"
class 0

---

system: Wnt5a (protein binding on small-molecule microarray); experiment: Wnt5a binders on small-molecule microarray, primary screen, biophysical, 635/667 nm fluorescence (AID 1142); conditions: 635 nm fluorescence, higher = more signal;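 further: fluorescence read at 667 nm with signal to noise per printed feature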
MEASURED QUANTITY: composite z-score

Observe how each entry below is paired with its result.
1) O=C(NCCO)C1=C[C@H](Oc2ccccc2I)[C@@H](O)[C@H](NCc2ccc(F)cc2)C1	0.273
2) CC(C)c1ccc(NN2C(C(O)C(C)C)C=CC3C(=O)N(c4ccccc4)C(=O)C32)cc1 (configuration not stated)	0.705
3) C=CCC(OC(C)=O)[C@@H]1[C@@H](N(Cc2cc3ccccc3o2)C(=O)c2ccc(-c3ccccc3)cc2)c2cc(OCCCO)ccc2N1C(=O)c1ccc2ccccc2n1 (some centres not stated)	-0.202
4) CCOC(=O)C1=CC[C@@H](c2ccccc2)N(S(=O)(=O)C[Si](C)(C)C)[C@H]1c1ccccc1	0.389

Query the reported composite z-score for Wnt5a (protein binding on small-molecule microarray); item: "C[C@]1(C(=O)NCC(F)(F)F)c2ccccc2C(=O)N(Cc2ccc(OC(F)(F)F)cc2)[C@H]1c1ccc(CO)cc1"
-0.151

Query the reported composite z-score for Wnt5a (protein binding on small-molecule microarray); item: "CC(C)C[C@@H]1NC(=O)[C@H]2C[C@@H](C(=O)NCCCCCNC(=O)CS)[C@@H](c3ccc(O)cc3)N2C1=O"
0.702

Query the reported composite z-score for Wnt5a (protein binding on small-molecule microarray); item: "COc1ccc(CCNC(=O)[C@@]2(C)c3ccccc3C(=O)N(Cc3cc(C(F)(F)F)cc(C(F)(F)F)c3)[C@H]2c2ccc(CO)cc2)cc1"
0.024

---

test: osmotic lysis modulators in infected erythrocytes, primary screen, PSAC antagonist project, cell-based, P. falciparum Indochina, OD700, 3 h (AID 1156); conditions: higher = more signal, called active from +8 up or from −8 down
Mark Not satisfied for z-score values under 0.2, and Satisfied for everything at or above.

1) O=C1N(Cc2ccccc2)c2ccccc2[C@H]2OC(c3ccc(OCCCO)cc3)=N[C@@]12Cc1ccccc1	Satisfied
2) COc1cc2c(cc1O)C(c1ccc(CN3CCCC3)cc1)N(Cc1cccc(OC(F)(F)F)c1)CC2 (stereo not given)	Not satisfied
3) C=CCNC(=O)[C@@H]1[C@H]2C(=O)O[C@H](c3ccccc3)[C@H](c3ccccc3)N2[C@H](c2ccccc2OCCO)[C@@]12C(=O)N(C(=O)OCCOC)c1ccc(C#CCCO)cc12	Not satisfied
4) C=C(CCCC)C(=O)CC[C@H](OC(=O)c1cccnc1)c1ccc(CO)o1	Satisfied
5) CC1CC/C=C\[C@H]2OC34C=CCN(CCN5CCOCC5)C(=O)[C@H]3N(CCCCCCO)C(=O)[C@@H]4C2C(=O)O1 (stereo not given in full)	Satisfied
6) CC(C)C[C@@H]1NC(=O)[C@@H]2C[C@H](C(=O)NCCCC[N+](C)(C)C)[C@H](c3ccc(O)cc3)N2C1=O	Not satisfied
7) COc1ccc(CCNC(=O)[C@@]2(C)c3ccccc3C(=O)N(Cc3cc(C(F)(F)F)cc(C(F)(F)F)c3)[C@H]2c2ccc(CO)cc2)cc1	Satisfied
8) CCCCC(=C=CC[C@@H](O)c1cccc(OCCO)c1)CCO	Satisfied
9) CCCC[C@H]1OB(O)C[C@H]2C1=C(COC)C[C@H]1C(=O)C=CC(=O)[C@H]12	Satisfied
10) C[C@H]1NC(=O)C([C@@H](C)OCc2ccccc2)NC(=O)[C@@]23C(=O)N[C@@H](Cc4ccccc4)C2[C@H](C)[C@@]2(C)O[C@H]2C3/C=C/C/C=C\CNC1=O (stereo not given in full)	Satisfied

Check if z-score >= 0.2 (inclusive). Item: "O=C1O[C@H](c2ccccc2)[C@H](c2ccccc2)N2[C@H]1[C@@H](C(=O)N1CCN(c3ncccn3)CC1)[C@]1(C(=O)Nc3ccccc31)[C@H]2c1ccc(O)cc1"
Not satisfied

Check if z-score >= 0.2 (inclusive). Item: CC(=O)c1ccc(C(O)C2C=CC3C(=O)NC(=O)C3N2Nc2ccc(Cl)cc2Cl)cc1 (stereo not given)
Satisfied

Check if z-score >= 0.2 (inclusive). Item: "CN(C)CCCC[C@@H]1NC(=O)[C@H]2C[C@@H](C(=O)NCc3ccc(F)cc3)[C@@H](c3ccc(O)cc3)N2C1=O"
Not satisfied

Check if z-score >= 0.2 (inclusive). Item: "CCOC(=O)C[C@H]1[C@H](OC(=O)c2ccc(C(=O)c3ccccc3)cc2)[C@@H](NC(=O)c2ccc3ccccc3c2)c2cc(OCCCO)ccc2N1C(=O)c1ccc2ccccc2n1"
Not satisfied

Check if z-score >= 0.2 (inclusive). Item: "COc1ccc(CCNC(=O)[C@@]2(Sc3ccc(C)cc3)CC(=O)N(C(C)C)[C@@H]2c2ccc(CO)cc2)cc1"
Not satisfied
